# SUBJECT OF TEST: EP1 Receptor (Homo sapiens, UniProt P34995)
# Construct: host or cells: HEK293T
# Sequence (P34995 1-402): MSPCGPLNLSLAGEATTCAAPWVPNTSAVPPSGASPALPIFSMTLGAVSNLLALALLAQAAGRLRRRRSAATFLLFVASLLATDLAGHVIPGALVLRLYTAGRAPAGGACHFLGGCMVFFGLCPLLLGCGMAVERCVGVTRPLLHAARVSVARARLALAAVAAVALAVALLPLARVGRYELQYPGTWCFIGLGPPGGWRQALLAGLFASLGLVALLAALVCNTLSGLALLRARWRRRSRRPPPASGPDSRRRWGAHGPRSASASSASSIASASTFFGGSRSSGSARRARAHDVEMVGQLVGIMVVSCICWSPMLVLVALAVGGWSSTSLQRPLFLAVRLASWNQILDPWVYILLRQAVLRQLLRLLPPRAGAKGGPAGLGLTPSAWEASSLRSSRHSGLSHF
# RUN DESCRIPTION: Fluorescent calcium assay, stable cell line, EP1 Receptor
# Type: cell-based
# CONDITION NOTES: read-out: EP1 Receptor EC50 for PGE2; Fluorescent Ca^2+ assay, cell line stably expressing the receptor
TEST READOUT: pEC50
Remember the convention: pEC50 equals -log10 of concentration in molar.

Prompt line: Param readout = pEC50; param system = EP1 Receptor (Homo sapiens, UniProt P34995); param query = CCCCC[C@H](O)/C=C/[C@H]1[C@H](O)CC(=O)[C@@H]1C/C=C\CCCC(=O)O [PGE2, prostaglandin E2] ; response: value
Response line: 8.52

# credit: patent US20110081661A1
